EXPERIMENTAL CONTEXT: human, serum
VALUE TYPE: Hepatotoxicity (moderate)

N=C(N)c1ccc(/C=C/c2ccc(C(=N)N)cc2)cc1	0
Cc1oncc1C(=O)Nc1ccc(C(F)(F)F)cc1 [LEFLUNOMIDE]	36
N[C@H](C(=O)O)[C@@H]1CC(Cl)=NO1	3
CC(=O)[C@H]1CC[C@H]2[C@@H]3CC[C@@H]4C[C@H](O)CC[C@]4(C)[C@H]3CC[C@]12C	2
CCCCCN(C)CCC(O)(P(=O)(O)O)P(=O)(O)O	1
O=c1[nH]cc(F)c(=O)[nH]1	15
Cc1c(N(C)C)c(=O)n(-c2ccccc2)n1C	2
COC(=O)C1=C(C)NC(C)=C(C(=O)OC)C1c1ccccc1[N+](=O)[O-]	6
CN(C)CCn1nnnc1SCC1=C(C(=O)O)N2C(=O)[C@@H](NC(=O)Cc3csc(N)n3)[C@H]2SC1	8
CC1(C)S[C@@H]2[C@H](NC(=O)Cc3ccccc3)C(=O)N2[C@H]1C(=O)O	9
NC(N)=Nc1nc(CSCCN/C=N/S(=O)(=O)c2ccc(Br)cc2)cs1	0
CC1(C)S[C@@H]2[C@H](NC(=O)[C@H](C(=O)O)c3ccsc3)C(=O)N2[C@H]1C(=O)O	7
CC(C)/N=C/Nc1ccc(-c2c[nH]cn2)cc1	1
CC(=O)OCOC(=O)C1=C(COC(N)=O)SC2[C@H]([C@H](C)O)C(=O)N12 (stereo partly specified)	25
NCCC(O)(P(=O)(O)O)P(=O)(O)O	3
CCCCNC(=N)NC(=N)N	0
COc1nc(C)ccc1CN1CC1C#N (stereo unspecified) [CIAMEXON]	2
CS[C@H]1SC[C@H]2C(=O)N(C)[C@@H](C(C)C)C(=O)OC[C@@H](NC(=O)c3cnc4ccccc4n3)C(=O)N[C@@H](C)C(=O)N(C)[C@@H]1C(=O)N(C)[C@@H](C(C)C)C(=O)OC[C@@H](NC(=O)c1cnc3ccccc3n1)C(=O)N[C@@H](C)C(=O)N2C	8
CO[C@H]1/C=C/O[C@@]2(C)Oc3c(C)c(O)c4c(O)c(c5c(nc6cc(C)ccn65)c4c3C2=O)NC(=O)/C(C)=C\C=C\[C@H](C)[C@H](O)[C@@H](C)[C@@H](O)[C@@H](C)[C@H](OC(C)=O)[C@@H]1C	27
NC1=NC(=O)C(c2ccccc2)O1 (stereo unspecified)	4
CO[C@@H]1[C@@H](O[C@@H]2O[C@H](C)[C@@H](O[C@H]3C[C@@](C)(O)[C@@H](OC(=O)CC(C)C)[C@H](C)O3)[C@H](N(C)C)[C@H]2O)[C@@H](CC=O)C[C@@H](C)[C@@H](O)/C=C/C=C/C[C@@H](C)OC(=O)C[C@H]1OC(C)=O	5

---

EXPERIMENTAL CONTEXT: human, serum
VALUE TYPE: Hepatotoxicity (acute)

N[C@@H]1C[C@H]1c1ccccc1.N[C@H]1C[C@@H]1c1ccccc1 [TRANYLCYPROMINE]	2
Cc1cc(CC(=O)O)n(C)c1C(=O)c1ccc(Cl)cc1 [ZOMEPIRAC]	0
Cc1cn([C@H]2C[C@H](F)[C@@H](CO)O2)c(=O)[nH]c1=O [ALOVUDINE]	1
C[C@@H]1[C@H](O)[C@@H](C)/C=C/C=C/C=C/C=C/C=C/C=C/C=C/[C@H](O[C@@H]2O[C@H](C)[C@@H](O)[C@H](N)[C@@H]2O)C[C@@H]2O[C@](O)(C[C@@H](O)C[C@@H](O)[C@H](O)CC[C@@H](O)C[C@@H](O)CC(=O)O[C@H]1C)C[C@H](O)[C@H]2C(=O)O [AMPHOTERICIN B]	15
CC1(C)S[C@@H]2[C@H](NC(=O)[C@H](N)c3ccccc3)C(=O)N2[C@H]1C(=O)OCOC(=O)[C@@H]1N2C(=O)C[C@H]2S(=O)(=O)C1(C)C [SULTAMICILLIN]	1
COc1cccc(OC)c1C(=O)N[C@@H]1C(=O)N2[C@@H]1SC(C)(C)[C@@H]2C(=O)O [METHICILLIN]	0
C#C[C@]1(O)CC[C@H]2[C@@H]3CCC4=Cc5oncc5C[C@]4(C)[C@H]3CC[C@@]21C [DANAZOL]	13
CN[C@@H]1[C@H](O[C@H]2[C@H](O[C@H]3[C@H](O)[C@@H](O)[C@H](NC(=N)N)[C@@H](O)[C@@H]3NC(=N)N)O[C@@H](C)[C@]2(O)CO)O[C@@H](CO)[C@H](O)[C@H]1O [DIHYDROSTREPTOMYCIN]	1
C[C@H]([C@](O)(Cn1cncn1)c1ccc(F)cc1F)S(C)(=O)=O [GENACONAZOLE]	0
CC(=O)c1ccc2c(c1)N(CC(C)N(C)C)c1ccccc1S2 (stereo not drawn) [ACEPROMETAZINE]	1
CC1=C(/C=C/C(C)=C/C=C/C(C)=C/C(=O)Nc2ccc(O)cc2)C(C)(C)CCC1 [FENRETINIDE]	0
COc1ccccc1OCCNCC(O)COc1cccc2[nH]c3ccccc3c12 (stereo not drawn) [CARVEDILOL]	1
NC(=O)NO [HYDROXYUREA]	4
CCC(=O)O[C@](Cc1ccccc1)(c1ccccc1)[C@H](C)CN(C)C [PROPOXYPHENE]	21
CO/N=C(\C(=O)N[C@@H]1C(=O)N2C(C(=O)[O-])=C(C[n+]3ccc(N)n3CCO)CS[C@H]12)c1csc(N)n1 [CEFOSELIS]	0
Cc1ccc2c(-c3ccccc3)nc(=O)n(C(C)C)c2c1 [PROQUAZONE]	0
CC[C@@H](CO)NC(=O)[C@@H]1C=C2c3cccc4c3c(cn4C)C[C@H]2N(C)C1 [METHYSERGIDE]	0
CN(C)c1ccc(O)c2c1C[C@H]1C[C@H]3[C@H](N(C)C)C(O)=C(C(N)=O)C(=O)[C@@]3(O)C(O)=C1C2=O [MINOCYCLINE]	48

---

EXPERIMENTAL CONTEXT: human
VALUE TYPE: Hepatotoxicity (severe hepatitis)

CN(C)[C@@H]1C(O)=C(C(=O)NCN2CCCC2)C(=O)[C@@]2(O)C(O)=C3C(=O)c4c(O)cccc4[C@@](C)(O)[C@H]3C[C@@H]12 [ROLITETRACYCLINE]	1
CCCNC(=O)NS(=O)(=O)c1ccc(Cl)cc1 [CHLORPROPAMIDE]	1
CCCCc1nc(Cl)c(CO)n1Cc1ccc(-c2ccccc2-c2nn[nH]n2)cc1 [LOSARTAN]	1
CC(=O)N[C@@H](CS)C(=O)O [ACETYLCYSTEINE]	0
CC(C)[N+](C)(CCC(C(N)=O)(c1ccccc1)c1ccccc1)C(C)C [ISOPROPAMIDE]	0
C[C@]12C=CC(=O)C=C1CC[C@@H]1[C@@H]2[C@@H](O)C[C@@]2(C)[C@H]1CC[C@]2(O)C(=O)CO [PREDNISOLONE]	2

---

Known Hepatotoxicity (choleostasis) of a selection of compounds
EXPERIMENTAL CONTEXT: human
VALUE TYPE: Hepatotoxicity (choleostasis)

CC(C)(O/N=C(\C(=O)N[C@@H]1C(=O)N2C(C(=O)[O-])=C(C[n+]3ccccc3)CS[C@H]12)c1csc(N)n1)C(=O)O	2
[N-]=[N+]=O [NITROUS OXIDE]	0
C[C@@H](O)[C@H]1C(=O)N2C(C(=O)O)=C(S[C@@H]3CN[C@H](C(=O)N(C)C)C3)[C@H](C)[C@H]12	0
CCN(CC)CCN1C(=O)CN=C(c2ccccc2F)c2cc(Cl)ccc21	3
C[C@]12CC[C@@H]3c4ccc(OS(=O)(=O)O)cc4CC[C@H]3[C@@H]1CCC2=O	1
OCCN1CCN(CCCN2c3ccccc3C=Cc3ccccc32)CC1	0

---

METHOD: Highest frequency of moderate liver toxicity observed during clinical trials, expressed as a percentage. [column '% BIOL' in source]
EXPERIMENTAL CONTEXT: human
Known Hepatotoxicity (moderate) of a selection of sequences
VALUE TYPE: Hepatotoxicity (moderate) (%)

SPIRAMYCIN	0
REVIPARIN SODIUM	10.3
UROKINASE	0
TINZAPARIN SODIUM	35
ALDESLEUKIN	100
CARBOPLATIN	27

---

EXPERIMENTAL CONTEXT: human, serum
Known Hepatotoxicity (acute) of a selection of molecules
VALUE TYPE: Hepatotoxicity (acute)

COc1cc2nc(N3CCN(C(=O)C4CCCO4)CC3)nc(N)c2cc1OC (stereo not given)	1
CC1(C)S[C@@H]2[C@H](NC(=O)Cc3ccccc3)C(=O)N2[C@H]1C(=O)O	17
O=NN(CCCl)C(=O)NC1CCCCC1	2
Cc1nccn1CC1CCc2c(c3ccccc3n2C)C1=O (stereo not given)	1
CN1CCOC(c2ccccc2)c2ccccc2C1 (stereo not given)	0
Cc1ccc2c(c1)C(N1CCN(C)CC1)=Nc1ccccc1S2	1
CC1(C)S[C@@H]2[C@H](NC(=O)C(c3ccccc3)S(=O)(=O)O)C(=O)N2[C@H]1C(=O)O (stereo not given in full)	3
COc1cccc2c1C(=O)c1c(O)c3c(c(O)c1C2=O)C[C@@](O)(C(C)=O)C[C@@H]3O[C@H]1C[C@H](N)[C@H](O)[C@H](C)O1	2
COC(=O)C1=C(C)NC(C)=C(C(=O)OCC(C)C)C1c1ccccc1[N+](=O)[O-] (stereo not given)	0
NC[C@@H]1CC[C@@H](N)[C@@H](O[C@H]2[C@H](O)[C@@H](O[C@H]3O[C@H](CO)[C@@H](O)[C@H](N)[C@H]3O)[C@H](N)C[C@@H]2N)O1	0
CCC(=O)O[C@@H](O[P@](=O)(CCCCc1ccccc1)CC(=O)N1C[C@H](C2CCCCC2)C[C@H]1C(=O)O)C(C)C	2
CN(C)[C@@H]1C(O)=C(C(N)=O)C(=O)[C@@]2(O)C(O)=C3C(=O)c4c(O)cccc4[C@@](C)(O)[C@H]3[C@H](O)[C@@H]12	2
CN1CCN2c3ccccc3Cc3ccccc3C2C1 (stereo not given)	5
O=C(O)CCC(=O)c1ccc(-c2ccccc2)cc1	5
O=C(CCCN1CCC(C(=O)c2ccc(F)cc2)CC1)c1ccc(F)cc1	0
COC(=O)C1=C(C#N)NC(C)=C(C(=O)OC(C)C)C1c1cccc([N+](=O)[O-])c1 (stereo not given)	0
CC(=O)Nc1ccc(/C=N/NC(N)=S)cc1	6
Cc1c(N(C)C)c(=O)n(-c2ccccc2)n1C	6
CCC[C@@H]1C[C@@H](C(=O)N[C@@H]([C@H]2O[C@H](SC)[C@H](O)[C@@H](O)[C@H]2O)[C@H](C)Cl)N(C)C1	5
CN1CCC(=C2c3ccccc3CCc3sccc32)CC1	1
